Where these numbers come from: the nanobody polyreactivity screen of Harvey et al. (2022)

Test: yeast display, Sf9 membrane polyspecificity reagent, FACS + sequencing; frameworks hold sequencing errors
reported-metric: polyreactivity (PSR sort gate)

{"seq-text": "QVQLVESGGGLVQAGGSLRLSCAPSGFIFTPYTMGGYRQAPGKERELVAAITDGSSTYYADSVKGRFTISRDNAKNTVYVQMNSLKPEDTAVYYCNADGKPPYISWLYDYWGQGTQVTVST", "result": "low polyreactivity"}
{"seq-text": "QVQLVESGGGLVQAGGSLRLSCAASGSTFVGYAMGWYRQAPGKERELVAHISYSGGSTYYADSVKGRFTISCDNAKNTVYLQMNSLKPEDTAVYYCAAEWSRHYYYAPRYDYWGQGTQVTVSS", "result": "low polyreactivity"}
{"seq-text": "QVQLVESGGGLVQAGGSLRLSCAASGSILGLYAMGWYRQAPEKERELVAGISSGGNTNYADSVKGRFTISRDNAKNTVYLQMNSLKPEDTAVYYSYDRIYRHYSTYSWTRYDYWGEGTQVTVSS", "result": "high polyreactivity"}
{"seq-text": "QVQLVESGGGLVQAGGSLRLSCAASGITFVANAMGWYRQAPGKERELVAAITRGGSTNYADSVKGRFTISRDNAKNTVYLQMNSLKPEDTAVYYCAADYVTRIGRYDYWGQGSQVTVSS", "result": "low polyreactivity"}
{"seq-text": "QDQLVESGGGLVQAGGSLRLSCAASGFTFYAYAMGWYRQAPGKERELVAAITGRGGSTYYADSVKGRFTISRDNAKNTVYLPLNSLKPEDTAVYDCNKVKKSDKFNTVSNDYWGQGTQVTVSS", "result": "high polyreactivity"}
{"seq-text": "QVQLVESGGGLVQAGGSLRLSCAASGITFDIYNMGWYRQAPGKERELVAAISYSGGSTYYADSVKGRFTISRDNAKNTVYLQMYSLKPEDTAVYYCAAYEGTYFTEVDYWGQGTQVTVSS", "result": "low polyreactivity"}
{"seq-text": "QVQLVESGGGLVQAGGSLRLSCAASGRIFGRYAMGWYRPAPGKERELVAGISARGGSTYYADSVKGRFTISRDNAKNTVYLQMNSLKPEDTAVYYCAARPYSIVPYDYWGQGTQVTVSS", "result": "high polyreactivity"}
{"seq-text": "QVQLVESGGGLVQAGGSLRISCAPSGSTFPRYAMGWYRQAPGKEREFVAVIWSGGSTYYADSVKGRFTISRDNAKNTVYLQMNSLKPEDTAVYYCAAEYHTLSKYSGYATHDYWGQGTQVTVSS", "result": "low polyreactivity"}
{"seq-text": "QVQLVESGGGLVQAGGSLRLSCAASGFTFYRYAMGWYRQAPGKERELVASISWRGGNTYYADSVKGRFTISRDNAKNTVYLQMNSLKPEDTAVYYCAAGRSRIPSLLDYWGQGTQVTVSS", "result": "high polyreactivity"}
{"seq-text": "QVQLVESGGGLVQAGGSLRLSCAASGRTFIWYVMGWYRQAPGKERELVASISTNGGNTYYADSVKGRFTISRDNAKNTVYLQMNSLKPEDTAVFYCAVDGVDAYYIAYYYWGQGTQVTVSS", "result": "high polyreactivity"}
{"seq-text": "QVQLVESGGGLVQAGGSLRLSCAASGSTIDYYAMGWYRQAPGKERELVAAISWSGGSTYYADSVKGRFTISRDNAKNTVYLQMYSLKTEDTAVYYCAAYSAFYTGSYNGWSDYDYWGQGTQVTVSS", "result": "low polyreactivity"}

###

Test: yeast display, Sf9 membrane polyspecificity reagent, FACS + sequencing; frameworks hold sequencing errors

{"seq-text": "QVQLQESGGGLVQAGGSLRLSCAASGSIFHLHIMCWYRQAPGKERESVAAISYGTSTYYADSVKGRFTICRDNAKNTVYLKMNSPKPDDTAVYYCAALFLVSKHHHYWGEGTQVTVSS", "polyreactivity (PSR sort gate)": "low polyreactivity"}
{"seq-text": "QVQLVESGGGLVQAGGSLRLSCAASGFTFARNAMGWYRQAPGKERELVAAINRSGGSTYYADSVKGRFTISRDNAKNTVYLQMNRLKPEDTAVYYCNKPRLAQQGYDYWGQGNQVTVSS", "polyreactivity (PSR sort gate)": "high polyreactivity"}
{"seq-text": "QVQLVESGGGLVQAGGSLRLSCAASGLTFWGYAMGWYRQAPGKEREFVASISSGGGSTYYADSVKGRFTMSRDNAKNTVYLQMNSLKPEDTAVYYCNAYRTKYRNQYTYATFDYWGQGTQVTVSS", "polyreactivity (PSR sort gate)": "low polyreactivity"}
{"seq-text": "QVQLVESGGGLVQAGGSLRLSCAASGSIFHANAMGWYRQAPGKERELVAAISQSCDTTYYADSVKGRFTISRDNAKNTVYLQMNSLKPEDTAVYYCAAEEGYGAFWYDYWGQGTQVTVSS", "polyreactivity (PSR sort gate)": "high polyreactivity"}
{"seq-text": "QVQLEESGGGLVQAGGSLRLSCAASGFTFYIYALGWYRQAPGKERELVAAISSSGTRTYYADSVKGRFTISRDNAKNTVYLQMNSLKPEDTAVYYCAATRYSWHNRVSRRHRYDYWGQGTQVTVSS", "polyreactivity (PSR sort gate)": "high polyreactivity"}
{"seq-text": "QVHLVESVGGLVQAGGSLRLSCAASGRIFRYYAMGWYRQAPVKAWELVATISQRGGTYYADSVKGRFTISRDNAKNTVYLQMNSLKPEDTAVYYCAARINTYRSYYPSSRSDYWGQGTQVTVSS", "polyreactivity (PSR sort gate)": "high polyreactivity"}
{"seq-text": "QVQLVESGGGLVQAGGSLRLSCAASGLTFASYAMGWYRQAPGKERELVARISRSGGSTYYADSVKGRFTISRDNAKNTVYLQMNSLKPEDTAVYYCAADYIFRRYPVGGIYDYDYWGQGTQVTVSS", "polyreactivity (PSR sort gate)": "high polyreactivity"}
{"seq-text": "QVQLVESGGGLVQAGGSLRLSCAASGSIFVYYAMGWYRQAPGNERELVAAISKTGGRTYYADSVKGRFTISRDNAKNTVYLQMNSLKPEDSAVYYCAARYTIRYKRYDYWGQGTQVTVSS", "polyreactivity (PSR sort gate)": "high polyreactivity"}
{"seq-text": "QVQLVESVVGLVQAGGSLLLSCDASGGIFLRYAMGSYRQAPGKERELVARISNRGGSTYYADSVKGRFTISRDYAKNTVYLQMNSLKPEDTAVYYCAADRWSSSRGDYWGQGTQVTVSS", "polyreactivity (PSR sort gate)": "low polyreactivity"}
{"seq-text": "QVQLQVSGGDLVQAGGSLRMSCAASGTIYGLTSMGWNRQAPGKEREFVAAITDGGNTNYADSVKGRFTISRDNAKNTVYLQMISLKPEDTAVFYCAVLFSDDAYYAYWGQGTQVNVSS", "polyreactivity (PSR sort gate)": "low polyreactivity"}
{"seq-text": "QVQLVESGGGLVQAGGSLRLSCAASGRIFGGNAMGWYRQAPGKECELVAAISKGGGSTNYADSVKGRFTISRDNAKNTVYLQMNSLKPEDTAVYYCAAVVSAHADDVDYWGQGTQVTVSS", "polyreactivity (PSR sort gate)": "high polyreactivity"}

###

Test: yeast display, Sf9 membrane polyspecificity reagent, FACS + sequencing; frameworks hold sequencing errors
reported-metric: polyreactivity (PSR sort gate)

{"seq-text": "QVQLVESGGGLVQAGGSLRLSCAASGRTFYNNAMGWYRQAPGKERELVAAISWSGGSTFYADSVKGRFTISRDNAKKTVYLQMNSLKPEDTAVYYCAALGRPYGSDYWGQGTQVTVSS", "reported-metric": "polyreactivity (PSR sort gate)", "result": "high polyreactivity"}
{"seq-text": "QVQLVESGGGLVQAGGSLRLSCAASGSIFGYYAMGWYRQAPGKERELVADITVRGGSTYYADSVNGRFTISRDNAKNTVYLQMNSLKPEDTAVYYCAKRFKYIYYWGQGTQVTVSS", "reported-metric": "polyreactivity (PSR sort gate)", "result": "high polyreactivity"}
{"seq-text": "QVQLVESGGGLVLAGGRLRLSCAASGRTFFDYTMGWYSQAPGKEREFVARISSRTGRTYYADSVKGRFTISRDNEKNTDDLQMNSLKPDDTAVYYCNAVSQYSAFDYWGQGTQVTVSS", "reported-metric": "polyreactivity (PSR sort gate)", "result": "high polyreactivity"}
{"seq-text": "QVQRVESGGGLVQAGGSLRLSCAASGFTFDRYAMGWYRQAPGKERELVAAISRSGGSTHYADSVKGRFTISRDNAKNTVYLQMNSLKPEDTAVYYCAKVYAPITALYFPTDRGDYCGQGTQVTVSS", "reported-metric": "polyreactivity (PSR sort gate)", "result": "high polyreactivity"}
{"seq-text": "QVQLVESGGGLVQAGGSLRLSCAASGSIIGYYAMGWYRQARGKERELVAAISSSGASTYYADSVKGRFTISRDNAKYTVYLQMNSLKPEDTAVYYCNAARRYPTRGGYWGQGTQVTVSS", "reported-metric": "polyreactivity (PSR sort gate)", "result": "high polyreactivity"}
{"seq-text": "QVQLVESGGGLVQAGGSLRLSCAASGITFTNYAMGWYRQAPGKERELVAAISSRGGRTYYADSVKGRFTISRDNAKNTVYLQMNSLKPEDTAVYYCAASFFQVYGDDYWGQGTQVTVSS", "reported-metric": "polyreactivity (PSR sort gate)", "result": "high polyreactivity"}
{"seq-text": "QVQLVESGGGLVQAGGSLRLSCAASGRTFWYYAMVWSRQAPGKERELVAGITFTGGRTYYADSVKGRFTISRDNSKNTVYLQMNSLKPEDTAVYYCAAAGLDVGRKDRDGYWGQGTQVTVSS", "reported-metric": "polyreactivity (PSR sort gate)", "result": "low polyreactivity"}
{"seq-text": "QVQLVESGGGLVQAGGSLRLSCAASGRTFYKYAMGWSRQAPGKERELVAVINWSGGRTYADSVKGRFTISRDNAKNTVYLQMNSLKPEDTAVYYCAADRGGLTHRWERNDYWGQGTQVTVSS", "reported-metric": "polyreactivity (PSR sort gate)", "result": "low polyreactivity"}
{"seq-text": "QVQLVESGGGLVQAGGSLRLSCAASGIIFGTYDMGWNRQAPGKERELVAANTSGTSTNYADSVKGRFTISRDNAMNTVYLQMNSLKPEDTAVYYCAADVYLYYPYFGHRRYNYWGQGTQVTVSS", "reported-metric": "polyreactivity (PSR sort gate)", "result": "high polyreactivity"}
{"seq-text": "QVQLVESGGGLVQAGGSLRLSCAATGLIFSRNAMGWYRQAPGKERELVAAISTGGSTYYADSVKGRFTISRDNAKITVYLQMNSLKPEDTAVYYCAAAPGYIYEYWGQGTQVTVSS", "reported-metric": "polyreactivity (PSR sort gate)", "result": "low polyreactivity"}
{"seq-text": "QVQLVESGGGLVQAGGSLRLSCAASGRTVVNAMGWYRQAPGKERELVAAISSNGGRTYYADSVKGRFTISRDNAKNTVYLQMTSLKPEDTAVYYCAKGLGIRPTYYYWGQGTKVTVSS", "reported-metric": "polyreactivity (PSR sort gate)", "result": "high polyreactivity"}
{"seq-text": "QVQLVESGGGLVQAGGSLRLSCAASGSIFTSYAMGWYRQAPGKERELVAGIDWSGGGTYYADSVKGRFTISRDNAKNTVYLQMNSLKPEDTAVYYCNADGPYTRYGPVDYWGQGTQVTVSS", "reported-metric": "polyreactivity (PSR sort gate)", "result": "low polyreactivity"}
{"seq-text": "QVQLVESGGGLVQAGGSLRLSCAASGLTFGIYAMGWYRQAPGKERELVATISWRGGSTYYADSVKGRFTISRDNAKNTVYLQMNSLKPEDTAVYYCNADNEYRLGYWDDSCGQGTQVTVSS", "reported-metric": "polyreactivity (PSR sort gate)", "result": "low polyreactivity"}
{"seq-text": "QVQLVESGGGLVQAGGSLRLSCAASGLIFSKNVMGRYRQAPGKERELVAAISQRGGSTYYADSVKGRFTISRDNAKNTVYLQMNSLKPEDTAVYYCAADNTVSHEDYWGQGTQVTVSS", "reported-metric": "polyreactivity (PSR sort gate)", "result": "high polyreactivity"}
{"seq-text": "QVQLVESRGGIVQAGGSLRLSCAASGRIFQYYAKGWYRQAPGKEWELVAAIISSGGRTYYADSVKGRFTISRDNAKKTVYVQMNSLKPEDTAVYYCNAVLSTRGMDFWGQGTQVTVSS", "reported-metric": "polyreactivity (PSR sort gate)", "result": "high polyreactivity"}
{"seq-text": "QVQLVESGGGLVQAGGSLRLSCAASGFIFYAYAMGWYRQAPGKEREFVAAISARGGNTYYADSVKGRFTISRDNAKNSVYLQMNSLKPEDTAVYYCAIYGGYYYLSGYYYWGQGTQVTVSS", "reported-metric": "polyreactivity (PSR sort gate)", "result": "high polyreactivity"}
{"seq-text": "QVQLVESGGGLVEAVGSLRLSCAASGINFQGNAMGWSRQAPGKERELVASITAGGDTTYYADSVKGRFTISRDNAKNTVYFQMNSLKPEDTAVYYCATRLYGYWPYGFDYWGQGTQVTVSS", "reported-metric": "polyreactivity (PSR sort gate)", "result": "low polyreactivity"}
{"seq-text": "QVQLVESGGGLDQAGGSLRLTCAAYGSTFRYNAMGWYRQAHGKERELVAAIDKRGDSTYADSVKGSFTISRDNAKNTVYLQMNSMNPDDTAVYYCAADSDSKYYYGFLLDTYEYWGQATQVTVSS", "reported-metric": "polyreactivity (PSR sort gate)", "result": "low polyreactivity"}
{"seq-text": "QVQRVESGAGLVQAGGILRLSCPASGSIFTNNPMGWSRQAPGKARELVAGISFRGSSTYADSVKGRFTISRDNAKNSVYLQMNSLNPVDPAVYYCAGDGLYWWMYYWGQGTQVTVSS", "reported-metric": "polyreactivity (PSR sort gate)", "result": "low polyreactivity"}
{"seq-text": "QVQLVESGGGLDQARGSLRLSCAASGSTLALYTMGWNRQATGKETELVAAISKNGGRTYYADSVKGRFTISRDNAKNTVYLQMYSLKPEDTAVYYCAAASGSYRGYDFWGQGSQVTVSS", "reported-metric": "polyreactivity (PSR sort gate)", "result": "high polyreactivity"}
{"seq-text": "QVQLVESGAALVQAGGSLRLSCAASASTYVSYAMGWSRQAPGKEREFVAAITWRGDSTYYADSVKGRFTISRDNAKNTVYFQMNSLKPEDTAVDYCAADGRSWRYYSPYYYWGQGTQVTVSS", "reported-metric": "polyreactivity (PSR sort gate)", "result": "low polyreactivity"}
